Each entry below carries its recorded IC50.
Experimental target: menin/MLL binding (biotinylated wild-type or mutated menin and MLL-AF9 fusion protein) (Homo sapiens, UniProt O00255)
Construct: biotinylated (1) wild-type menin or (2) mutated menin (described in Nature (2012) Vol. 482, pp. 542-548); fused on or other part: Biotin attached chemically (Sulfo-NHS-Biotin); no fused second protein is printed for menin
Test description: Assay 1 (Binding Assay): AlphaLISA menin/MLL binding
Measurement setup: 5 nM biotinylated menin, MLL-AF9-FLAG lysate

Recorded results for 3 molecules are shown here.
Fc1ccc(CN2CCC(c3cn(-c4ccc(F)cc4OCC4CC4)c4cnccc34)CC2)cc1    < 100 nM
CC(C)N(C)C(=O)c1cc(F)ccc1-n1cc([C@H]2CC[C@H](N3CCCC(O)C3)CC2)c2ccncc21 (stereo partly shown)    < 100 nM
CC(C)N(C)C(=O)c1cc(F)ccc1-n1cc([C@H]2CCCN(Cc3ccc4c(c3)[nH]c(=O)n4CCO)C2)c2ccncc21 (single isomer, unassigned) [Example 44A]    < 100 nM

# input for lookup
Note IC50 for the molecule shown: CC(C)N(C)C(=O)c1cc(F)ccc1-n1cc(-c2ccc3c(c2)CCNC3)c2ccncc21 [Int. 17C]
100 to 1000 nM

---

Experimental target: menin/MLL binding (biotinylated wild-type or mutated menin and MLL-AF9 fusion protein) (Homo sapiens, UniProt O00255)
Construct: biotinylated (1) wild-type menin or (2) mutated menin (described in Nature (2012) Vol. 482, pp. 542-548); fused on or other part: Biotin attached chemically (Sulfo-NHS-Biotin); no fused second protein is printed for menin
Sequence (O00255 1-459 limits assumed): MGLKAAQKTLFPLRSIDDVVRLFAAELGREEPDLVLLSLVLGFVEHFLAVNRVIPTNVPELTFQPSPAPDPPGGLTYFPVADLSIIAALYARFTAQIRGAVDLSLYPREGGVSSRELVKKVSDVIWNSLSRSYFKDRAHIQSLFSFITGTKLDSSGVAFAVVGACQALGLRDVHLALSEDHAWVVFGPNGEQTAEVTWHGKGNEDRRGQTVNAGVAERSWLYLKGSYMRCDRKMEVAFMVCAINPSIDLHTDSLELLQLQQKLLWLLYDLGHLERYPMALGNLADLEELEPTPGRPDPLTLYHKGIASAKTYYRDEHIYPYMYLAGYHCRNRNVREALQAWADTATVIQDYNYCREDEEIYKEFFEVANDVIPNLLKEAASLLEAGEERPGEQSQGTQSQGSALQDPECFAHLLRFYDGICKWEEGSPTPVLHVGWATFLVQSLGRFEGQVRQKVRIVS
Test description: Assay 1 (Binding Assay): AlphaLISA menin/MLL binding
Measurement setup: 5 nM biotinylated menin, MLL-AF9-FLAG lysate
pIC50: −log10 of the molar value.
# Lookup of reported pIC50 keyed by entry

Answered examples (8):
CC(C)N(C)C(=O)c1cc(F)ccc1-n1cc(C2CCC(O)CC2)c2ccncc21 (single isomer, unassigned) [Example 53]    ≤ 6.00
CC(C)N(C(=O)c1cc(F)ccc1-n1cc(C2CN(CC[C@H]3CC[C@H](NC(=O)OC(C)(C)C)CC3)C2)c2ccncc21)C(C)C    > 7.00
CC(C)N(C)C(=O)c1cc(F)ccc1-n1cc([C@H]2CC[C@@H](N3CCC(O)CC3)CC2)c2ccncc21    > 7.00
Cc1c(CN2CCC(c3cn(-c4cccc(F)c4)c4cncnc34)CC2)ccc2[nH]c(C#N)cc12    ≤ 6.00
CCN(C(=O)c1cc(F)ccc1-n1cc(C2CCN(Cc3ccccc3)CC2)c2ccncc21)C(C)C    > 7.00
CC(C)N(C)C(=O)c1cc(F)ccc1-c1cn(C2CCCN(Cc3ccc4[nH]c(=O)[nH]c4c3)C2)c2ccncc12 (centres unmarked)    > 7.00
CC(C)N(C)C(=O)c1cc(F)ccc1-n1cc(C2CCN(C[C@H]3CC[C@H](NS(C)(=O)=O)CC3)C2)c2ccncc21 (some centres unmarked)    > 7.00
CC(C)N(C)C(=O)c1cc(F)ccc1-n1cc(C2CCN(Cc3ccccc3Cl)CC2)c2ccncc21    > 7.00

Give pIC50 for the following molecule: `CC(C)N(C)C(=O)c1cc(F)ccc1-n1cc(C2CCN(CCc3ccc(C(C)(C)C#N)cc3)CC2)c2ccncc21`
> 7.00

Respond only with pIC50 recorded for `CC(=O)N[C@H]1CC[C@H](CCN2CCC(c3cn(-c4ccc(F)cc4C(=O)N(C)C(C)C)c4cnccc34)CC2)CC1`
> 7.00

Provide pIC50 value for the following molecule: CC(C)N(C)C(=O)c1cc(F)ccc1-n1cc(C2CCCN(Cc3ccc4c(c3)NC(=O)C4(C)C#N)C2)c2ccncc21 (centres unmarked)
> 7.00

Note pIC50 for the molecule shown: `Cc1cc(F)ccc1-n1cc(C2CCN(Cc3ccc4[nH]c(C#N)cc4c3C)CC2)c2ncncc21`
6.00 to 7.00

Write down pIC50 measured for item CC(C)N(C)C(=O)c1cc(F)ccc1-n1cc(C2CCCN(C(=O)OC(C)(C)C)C2)c2ccncc21 (centres unmarked)
≤ 6.00

Identify measured pIC50 associated with `CC(C)N(C)C(=O)c1cc(F)ccc1-n1cc([C@H]2CC[C@H](N3CCC(F)(F)CC3)CC2)c2ccncc21`
> 7.00
